target: hP2X3 (Homo sapiens, UniProt P56373); construct: expressed in transfected cells; host or cells: e.g. HEK293 or 1321N1; test: Calcium uptake assay (P2X antagonist assay), P2X3 homomer; type: cell-based; conditions: calcium uptake assay, hP2X3; read-out: IC50 hP2X3 (nM), Ca Influx
MEASUREMENT_TYPE: IC50

Please review the entries below; each comes with its answer.
Cc1ccc(-c2cc(C(=O)N[C@H](C)c3cnc(C)c(Cl)c3)cc(C(=O)N3CCCC3)c2)cc1 [Compound 104] ... < 100 nM
CCCS(=O)(=O)c1cc(C(=O)NCc2ccc(C(F)(F)F)nc2)cc(-c2ccc(C)cc2)c1 [Compound 44] ... 100 to 500 nM
Cc1ncc(CNC(=O)c2cc(C(=O)N3CCCC3)cc(-c3ccc(F)cn3)c2)cn1 [Compound 99] ... > 1000 nM

Please report IC50 for the following compound: Cc1ccc(-c2cc(C(=O)NCc3ccc(C)nc3)cc(C(=O)N3C4CCC3CC4)c2)cc1 [Compound 193]
< 100 nM

====

Please respond with reported IC50 for every item in the list.
molecular target: hP2X2/3H (Homo sapiens, UniProt P56373+Q9UBL9); construct: expressed in transfected cells; host or cells: e.g. HEK293 or 1321N1; test: Calcium uptake assay (P2X antagonist assay), P2X2/3 heteromer; type: cell-based; conditions: Ca influx (calcium uptake assay), hP2X2/3H; read-out: IC50 hP2X2/3H
Sequence (Q9UBL9 whole entry): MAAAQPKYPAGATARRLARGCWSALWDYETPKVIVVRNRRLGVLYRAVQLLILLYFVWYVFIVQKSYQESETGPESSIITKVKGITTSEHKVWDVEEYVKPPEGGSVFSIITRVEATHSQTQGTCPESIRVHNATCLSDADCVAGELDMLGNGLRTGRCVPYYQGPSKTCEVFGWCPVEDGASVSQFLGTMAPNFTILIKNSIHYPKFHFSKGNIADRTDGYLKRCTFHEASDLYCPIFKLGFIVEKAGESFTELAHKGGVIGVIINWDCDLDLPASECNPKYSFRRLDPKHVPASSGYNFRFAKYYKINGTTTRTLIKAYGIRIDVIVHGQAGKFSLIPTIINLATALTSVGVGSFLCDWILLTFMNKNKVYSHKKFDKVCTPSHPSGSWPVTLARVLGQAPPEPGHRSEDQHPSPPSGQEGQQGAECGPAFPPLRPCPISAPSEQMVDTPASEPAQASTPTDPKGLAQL
Sequence (P56373 whole entry): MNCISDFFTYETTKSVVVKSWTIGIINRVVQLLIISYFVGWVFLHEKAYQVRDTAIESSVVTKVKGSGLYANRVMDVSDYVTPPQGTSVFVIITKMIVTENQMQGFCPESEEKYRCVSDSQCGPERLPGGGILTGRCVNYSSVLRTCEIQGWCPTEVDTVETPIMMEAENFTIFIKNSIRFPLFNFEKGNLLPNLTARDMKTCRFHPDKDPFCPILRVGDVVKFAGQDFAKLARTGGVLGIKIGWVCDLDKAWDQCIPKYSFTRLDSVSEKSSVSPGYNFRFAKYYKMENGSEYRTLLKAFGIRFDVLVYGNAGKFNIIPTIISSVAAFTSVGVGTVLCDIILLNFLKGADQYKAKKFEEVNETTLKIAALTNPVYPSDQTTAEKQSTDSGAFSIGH

Completed entries (count: 3):
Cc1ccc(-c2cc(C(=O)N[C@H](C)c3cnc(C)nc3)cc(C(O)c3ccccn3)c2)nc1 (stereo partly shown) ... < 100 nM
Cc1ccc(-c2cc(OCC3CNCCO3)cc(C(=O)N[C@H](C)c3ccc(C)nc3)c2)c(C#N)c1 (stereo partly shown) ... 100 to 500 nM
Cc1ccc(-c2cc(C(=O)N[C@H](C)c3cnc(C)nc3)cc(C(O)c3ccccc3)c2)c(C#N)c1 (stereo partly shown) ... < 100 nM

Continue with the next compound.
Note down IC50 recorded for COc1cc(C(=O)N[C@H](C)c2cnc(C)nc2)cc(-c2ccc(C)cn2)c1
100 to 500 nM
